assay: Solubility; settings: water
Structures can show the parent of a compound that is named as a salt.
measured quantity: solubility

compound="N=C(NC(=O)Cc1c(Cl)cccc1Cl)NC(=O)Oc1ccc(CC(=O)O)cc1 [Compound 25, Hydrochloride]" measured_quantity=solubility result="< 2300 µg/mL"
